Hey, just so you know, these numbers are from PubChem BioAssay.

assay: drug combination growth inhibition, ovarian cancer – cell-based, oncology-focused library, rucaparib conditional, profiling panel (AID 1508598); details: patient-derived ovarian cancer cells, CellTiter-Glo viability, 144 h; at 0.00488 µM; OCI-C5x cells; without rucaparib; stronger effect = lower value
*1 amine or outer side, *2 acyl side, *3 side chain or, on linkers, in order; H or OH if unused. Where a SMILES comes first, the peptide text is derived from it. Bridges are numbered along the chain shown (N, C = ends). Roman numbers before positions name the chains, in order. [ ]: non-standard residue; d: D form. Hexamethylenediamine = C(CCCN[*:2])CCN[*:1]; Dip = N[C@H](C(=O)O)C(c1ccccc1)c1ccccc1; Chg = N[C@H](C(=O)O)C1CCCCC1; NMeA = CN[C@@H](C)C(=O)O
Provide the reported viability of each item.
One number for each entry, in %.

Sample records with viability:
(Q) Given the entry OCCn1cc(-c2ccc3c(c2)CCC3=NO)c(-c2ccncc2)n1 , report its measured viability.
(A) 92.1

(Q) State the recorded viability for this entry: c1ccc(Cn2c(-c3ccc(OC[C@H](C4CCNCC4)n4c(-c5ccccc5)nc5ccccc54)cc3)nc3ccccc32)cc1
(A) 126

Need viability for each of these compounds.
1. CC(=O)O[C@@]1(C(C)=O)CC[C@H]2[C@@H]3C=C(C)C4=CC(=O)CC[C@]4(C)[C@@H]3CC[C@@]21C
2. O=C(NCC1(c2nc(-c3ccccc3)cs2)CCOCC1)c1cccc(-c2noc(C(F)(F)F)n2)c1
3. Nc1nonc1C(=Nc1ccc(F)c(Cl)c1)NO
4. C=C1/C(=C/C=C2\CCC[C@@]3(C)[C@H]2CC[C@H]3[C@H](C)/C=C/[C@@H](C)C(C)C)C[C@H](O)C[C@@H]1O

(A)
101
117
114
104

Go through the items and report each one's viability.
1. Nc1nc(F)nc2c1ncn2[C@H]1O[C@H](CO)[C@@H](O)[C@@H]1O
2. C[C@@H]1C[C@H]2[C@@H]3CCC4=CC(=O)C=C[C@]4(C)[C@]3(F)[C@H](O)C[C@]2(C)[C@]1(O)C(=O)CO
3. C[C@]12CC[C@H]3c4ccc(O)cc4CC[C@H]3[C@@H]1CCC2=O
4. CCCc1ccc(OCC(=O)N(Cc2nc(-c3cccnc3)no2)C(C)C)cc1

(A)
1: 120; 2: 116; 3: 120; 4: 104

// input: 7 compounds below; output: viability for each
1. C[C@@]1(c2nc3c(C(N)=O)cccc3[nH]2)CCCN1
2. COc1cc(=C2C=c3ccccc3=N2)[nH]/c1=C\c1[nH]c(C)cc1C
3. CO[C@H]1C[C@H]2CC[C@@H](C)[C@@](O)(O2)C(=O)C(=O)N2CCCC[C@H]2C(=O)O[C@H]([C@H](C)C[C@@H]2CC[C@H](OP(C)(C)=O)[C@H](OC)C2)CC(=O)[C@H](C)/C=C(\C)[C@@H](O)[C@@H](OC)C(=O)[C@H](C)C[C@H](C)/C=C/C=C/C=C/1C
4. COC1=C2C[C@H](C)C[C@@H](OC)[C@H](O)[C@H](C)/C=C(\C)[C@H](OC(N)=O)[C@@H](OC)/C=C/C=C(\C)C(=O)NC(=CC1=O)C2=O
5. C[C@H](O[C@H]1OCCN(Cc2n[nH]c(=O)[nH]2)[C@H]1c1ccc(F)cc1)c1cc(C(F)(F)F)cc(C(F)(F)F)c1
6. CN(CC(=O)N(Cc1ccc(C2CCCCC2)cc1)c1ccc(C(=O)O)cc1)S(=O)(=O)c1c(F)c(F)c(F)c(F)c1F
7. COc1ccc(C2=N[C@@H](c3ccc(Cl)cc3)[C@H](c3ccc(Cl)cc3)N2C(=O)N2CCNC(=O)C2)c(OC(C)C)c1

(A)
1. 109
2. 114
3. 90.1
4. 109
5. 123
6. 111
7. 106

Hello, I would appreciate it if you could give viability for each entry below.
1. CC(C)C[C@H](NP(=O)(O)O[C@@H]1O[C@@H](C)[C@H](O)[C@@H](O)[C@H]1O)C(=O)N[C@@H](Cc1c[nH]c2ccccc12)C(=O)O
2. COc1cc([C@H]2c3cc4c(cc3[C@@H](O[C@@H]3O[C@@H]5CO[C@@H](c6cccs6)O[C@H]5[C@H](O)[C@H]3O)[C@H]3COC(=O)[C@H]23)OCO4)cc(OC)c1O
3. CC(=O)O[C@H]1C(=O)[C@@]2(C)C([C@H](OC(=O)c3ccccc3)[C@]3(O)C[C@H](OC(=O)[C@H](O)[C@@H](NC(=O)c4ccccc4)c4ccccc4)C(C)=C1C3(C)C)[C@]1(OC(C)=O)CO[C@@H]1C[C@H]2O (some centres undefined)
4. CN(C)CCSSCCNC(=O)C1CCN(C(=O)CSc2ccc(Cl)cc2)CC1
5. CN[C@@H](C)C(=O)N[C@H](C(=O)N1CCC[C@H]1C(=O)N[C@H](C(=O)NCCCCCCNC(=O)[C@@H](NC(=O)[C@@H]1CCCN1C(=O)[C@@H](NC(=O)[C@H](C)NC)C1CCCCC1)C(c1ccccc1)c1ccccc1)C(c1ccccc1)c1ccccc1)C1CCCCC1 (I: H-[NMeA][Chg]P[Dip] / II: H-[NMeA][Chg]P[Dip]; linker I:C-II:C via Hexamethylenediamine)
6. NC(=O)CCCSc1nc(N)nc(-c2c(Cl)cc3c4c(cccc24)COC3)n1
7. COc1cccc2c1C(=O)c1c(O)c3c(c(O)c1C2=O)C[C@@](O)(C(C)=O)C[C@H]3O[C@H]1C[C@H](N)[C@H](O)[C@H](C)O1

(A)
1. 116
2. 104
3. 71.2
4. 112
5. 111
6. 103
7. 152

// each compound listed below needs its viability
1. CC1(C)C=C(CN2C/C(=C/c3ccc(F)cc3)C(=O)/C(=C/c3ccc(F)cc3)C2)C(C)(C)N1O
2. COc1cccc(-c2cc(F)ccc2[C@H]2Cc3nc(N)nc(C)c3C(=O)N2)n1
3. COc1cc(C(=O)NC2CCN(C)CC2)ccc1Nc1ncc2c(n1)N(C1CCCC1)CC(F)(F)C(=O)N2C
4. CC(C)CC(CC(=O)NO)C(=O)N[C@@H](Cc1ccc2ccccc2c1)C(=O)N[C@@H](C)C(=O)NCCN (some centres undefined)
5. O=C(O)c1cc(I)ccc1NC(=O)[C@H](Cc1ccccc1)NCc1ccccc1

(A)
1. 112
2. 141
3. 105
4. 118
5. 118
